Just for reference, PubChem BioAssay (NCI) is where these values come from.

Reported growth inhibition values for a set of molecules
- PROTOCOL DETAILS: NCI Yeast Anticancer Drug Screen. Data for the cln2 rad14 strain (AID 165);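 further: 0% = growth equal to vehicle treated cultures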
- MEASUREMENT SETUP: S. cerevisiae cln2 rad14 strain, at 5.0 µM (retest, dose inferred, filed as 0.5), hits give high values
This is part of a sample that, as a whole, favours compounds with a hit. Of some 79,000 tested, about 15% had one in any assay.
MEASURED PARAMETER: growth inhibition (%)

* COc1ccc2ccc(/C=C/[N+](=O)[O-])cc2c1OC | 41
* c1csc(CNCc2cccs2)c1 | -4
* CC(C)(C)C1=CC(=CC=C2C=CN(CCO)C=C2)C=C(C(C)(C)C)C1=O | 0
* CCCCCCCCCCCCNc1ccccn1 | 6
* COc1c2c(cc3ccc(=O)oc13)C(Cl)C(Cl)O2 (stereo unspecified) | -16
* C=CCOC(=O)CC(OC(C)=O)C(CC)CC(C)C (stereo unspecified) | 2
* Cc1cc(N(CCCOS(C)(=O)=O)CCCOS(C)(=O)=O)ccc1C=Nc1cc(Br)c(O)c(Br)c1 | -3
* N/C(=N\OC1(c2ccccc2)OC(=O)C(=O)/C1=C(/O)c1ccccc1)c1ccccc1 (stereo unspecified) | 0
* CN(C)CCCN1c2ccc3ccccc3c2Sc2cccc(Cl)c21 | 2
* CC(C=O)Cc1ccccc1 (stereo unspecified) | -2
* CC(=Nc1ccc(S(=O)(=O)c2ccc(N=C(C)N3CCCCC3)cc2)cc1)N1CCCCC1 | -5
